- Test system: HEPG2
- Assay Comment: Euclidean distance of Cell Painting phenotypic profile (signed KS, 77 features) to DMSO centroid (dimensionless distance); 5 or 10 uM (library dependent); higher = stronger phenotypic change vs DMSO (phenoactivity)
- Test Parameters: 48 h
Structures can show the parent of a compound that is named as a salt.
Class (by Euclidean distance) -- bin 0 = under 0.9, bin 1 = from 0.9 up to 2, bin 2 = 2 and over

[
  {
    "Compound": "COc1cccc2c1C(=O)c1c(O)c3c(c(O)c1C2=O)C[C@@](O)(C(=O)CO)C[C@@H]3O[C@H]1C[C@H](N)[C@@H](O)[C@H](C)O1 [Epirubicin HCl]",
    "Category Label": "bin 2"
  },
  {
    "Compound": "O=C(O)c1cc(-c2ccc(F)cc2F)ccc1O [Diflunisal]",
    "Category Label": "bin 0"
  },
  {
    "Compound": "CS(=O)(=O)Nc1ccc([N+](=O)[O-])cc1Oc1ccccc1 [Nimesulide]",
    "Category Label": "bin 1"
  },
  {
    "Compound": "COc1c(O)cc2c(c1O)[C@@H]1O[C@H](CO)[C@@H](O)[C@H](O)[C@H]1OC2=O [Bergenin]",
    "Category Label": "bin 0"
  },
  {
    "Compound": "CCN(CC)CCOC(=O)C1(C2CCCCC2)CCCCC1 [Dicyclomine HCl]",
    "Category Label": "bin 1"
  },
  {
    "Compound": "O=C(N/N=C/c1ccc(O)c(O)c1)c1cc2ccccc2cc1O [Dynasore]",
    "Category Label": "bin 1"
  },
  {
    "Compound": "Cc1oc(=O)oc1CN1CCN(c2cc3c(cc2F)c(=O)c(C(=O)O)c2n3C(C)S2)CC1 (centres undefined) [Prulifloxacin (NM441. AF 3013)]",
    "Category Label": "bin 1"
  },
  {
    "Compound": "COc1cc2nc(N3CCCN(C)CC3)nc(NC3CCN(Cc4ccccc4)CC3)c2cc1OC",
    "Category Label": "bin 2"
  }
]

* * *

- System: A549
- Assay Comment: Euclidean distance of Cell Painting phenotypic profile (signed KS, 77 features) to DMSO centroid (dimensionless distance); 5 or 10 uM (library dependent); higher = stronger phenotypic change vs DMSO (phenoactivity)
- Test Parameters: 48 h
Label scheme for Euclidean distance: lower than 1 is not met, 1 and above is met.

[
  {
    "Compound": "CCOC(=O)CC(=O)N1CCSC1COc1ccccc1OC (stereo not given) [Moguisteine]",
    "Category Label": "not met"
  },
  {
    "Compound": "CC(=O)O[C@H]1CC[C@@]2(C)C(=CC[C@@H]3[C@@H]2CC[C@]2(C)C(c4cccnc4)=CC[C@@H]32)C1 [Abiraterone Acetate]",
    "Category Label": "met"
  },
  {
    "Compound": "C[C@@H](NC(=O)c1ncnc(N)c1Cl)c1ncc(C(=O)Nc2cc(C(F)(F)F)c(Cl)cn2)s1",
    "Category Label": "met"
  },
  {
    "Compound": "COc1ccc(Cn2ccc3ccc(C(=O)NO)cc32)cc1",
    "Category Label": "met"
  },
  {
    "Compound": "C[C@@H](O)[C@H]1C(=O)N2C(C(=O)O)=C(S[C@@H]3CN[C@H](C(=O)N(C)C)C3)[C@H](C)[C@H]12 [Meropenem Trihydrate]",
    "Category Label": "met"
  }
]
